Reference source for all entries: ChEMBL document CHEMBL1147361

# assay-target: Protease (Human immunodeficiency virus 1, UniProt Q9YQ12)
# Sequence (Q9YQ12 whole entry): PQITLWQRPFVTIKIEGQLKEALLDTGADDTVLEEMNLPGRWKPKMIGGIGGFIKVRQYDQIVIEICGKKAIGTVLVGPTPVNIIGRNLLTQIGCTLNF
# procedure-text: Inhibition of HIV1 protease
experimental-readout: log10 IC50 (log10 of the value in µM)

{"columns": ["compound-structure-string", "assay-target", "log10 IC50"],
 "data": [
  ["C=C1[C@@H](C)[C@H]2[C@H](Cc3ccccc3)NC(=O)[C@]23[C@H](OC(C)=O)/C=C/[C@@H](C)C[C@@](O)(CO)C/C=C/[C@H]3[C@@H]1O", "Protease (Human immunodeficiency virus 1, UniProt Q9YQ12)", 1.65],
  ["C=C1[C@@H](C)[C@H]2[C@H](Cc3cccc(O)c3)NC(=O)[C@]23[C@H](OC(C)=O)/C=C/[C@@H](C)C[C@@H](CO)C/C=C/[C@H]3[C@@H]1O", "Protease (Human immunodeficiency virus 1, UniProt Q9YQ12)", 1.58],
  ["C=C1[C@@H](C)[C@H]2[C@H](Cc3ccc(O)cc3)NC(=O)[C@]23[C@H](OC(C)=O)/C=C/[C@@H](C)C[C@@H](CO)C/C=C/[C@H]3[C@@H]1O", "Protease (Human immunodeficiency virus 1, UniProt Q9YQ12)", 1.54],
  ["C=C1[C@@H](C)[C@H]2[C@H](Cc3ccccc3)NC(=O)[C@]23[C@H](OC(C)=O)/C=C/[C@@H](C)C[C@@H](CO)C/C=C/[C@H]3[C@@H]1O", "Protease (Human immunodeficiency virus 1, UniProt Q9YQ12)", 1.34],
  ["C=C1[C@@H](C)[C@H]2[C@H](Cc3ccccc3)NC(=O)[C@]23[C@H](OC(C)=O)/C=C/[C@@H](C)C[C@@H](C)C/C=C/[C@H]3[C@@H]1O", "Protease (Human immunodeficiency virus 1, UniProt Q9YQ12)", 0.48]
]}
